Parameter: pEC50. Scope: all listed entries.
Tested on: recombinant AMPK proteins (α1β1γ1, α2β1γ1, α1(1-335), α1(1-394) or α2(1-394))
assay_text: Scintillation Proximity Assay (AMPK activation)
Assay type: biochemical, human
condition: effective concentration of activator for 50% of maximal enzyme activity; 2 hr at 30° C.; AMPK form not specified
When answering, recall that pEC50 equals minus log10 of the concentration in mol/L, and write that number alone.

Example entries and their recorded answers appear below.
O=C1N(c2c[nH]cn2)c2ccccc2[C@@]12C[C@@H]2c1ccc(Cl)cc1 (racemic) [Example 131]; 5.49
O=C(NCCCN1CCOCC1)c1cccc(CN2C(=O)[C@@]3(C[C@H]3c3ccc(Cl)cc3)c3ccccc32)c1 (racemic) [Example 112]; 5.90
O=C1N(Cc2ccncc2)c2ccccc2[C@]12C[C@H]2c1ccc(Cl)cc1 (racemic) [Example 78]; 5.38

The record that follows has no pEC50 shown yet.
Query pEC50 for O=C(NCCN1CCOCC1)c1cccc(CN2C(=O)[C@@]3(C[C@H]3c3ccc(Cl)cc3)c3ccccc32)c1 (racemic) [Example 114]
5.19

* * *

Tested on: recombinant AMPK proteins (α1β1γ1, α2β1γ1, α1(1-335), α1(1-394) or α2(1-394))
assay_text: Scintillation Proximity Assay (AMPK activation)
Type: biochemical, human
condition: effective concentration of activator for 50% of maximal enzyme activity; 2 hr at 30° C.; AMPK form not specified
Parameter: EC50. Scope: all listed entries.
Numeric only. Scale: nM

CN(C)[C@@H]1CCN(CCN2C(=O)[C@@]3(C[C@H]3c3ccc(Cl)cc3)c3ccccc32)C1 (mixture of isomers); 2170
CC1CN(CCNCCN2C(=O)[C@]3(C[C@@H]3c3ccc(Cl)cc3)c3ccccc32)CC(C)O1 (mixture of isomers); 1100
O=C(c1cccc(CN2C(=O)[C@@]3(C[C@H]3c3ccc(Cl)cc3)c3ccccc32)c1)N1CCN(c2ccncc2)CC1 (racemic); 1600
CS(=O)(=O)c1ccc([C@H]2C[C@]23C(=O)N(Cc2cccc(C(=O)O)c2)c2ccccc23)cc1 (racemic); 10800
O=C(O)c1cccc(N2C(=O)[C@]3(C[C@@H]3c3ccc(Cl)cc3)c3ccccc32)c1 (racemic); 2590

Query EC50 for COc1cccc([C@H]2C[C@]23C(=O)N(Cc2cccc(C(=O)O)c2)c2ccccc23)c1 (racemic)
1660

Query EC50 for O=C(O)c1cccc(CN2C(=O)[C@]3(C[C@@H]3c3ccc(Cl)cc3)c3cc(Br)ccc32)c1 (racemic)
2720

Query EC50 for O=C1N(CC2CCNCC2)c2ccccc2[C@@]12C[C@@H]2c1ccc(Cl)cc1 (racemic)
5400

Query EC50 for O=C1N(CCNCCCN2CCOCC2)c2ccccc2[C@@]12C[C@@H]2c1ccc(Cl)cc1 (racemic)
4500

Query EC50 for CC(C)N1CCN(C(=O)c2cccc(CN3C(=O)[C@]4(C[C@@H]4c4ccc(Cl)cc4)c4ccccc43)c2)CC1 (racemic)
1710

Query EC50 for COc1cccc([C@@H]2C[C@]23C(=O)N(Cc2cccc(C(=O)O)c2)c2ccccc23)c1 (racemic)
1420

Query EC50 for O=C(O)c1cccc(CN2C(=O)[C@@]3(C[C@H]3c3ccc(Cl)cc3)c3ccccc32)c1 (racemic)
2570

Query EC50 for O=C(O)c1cccc(CN2C(=O)[C@@]3(C[C@@H]3c3ccc(Cl)cc3)c3ccccc32)c1 (racemic)
960

Query EC50 for O=C1N(CC2CCOCC2)c2ccccc2[C@@]12C[C@@H]2c1ccc(Cl)cc1 (racemic)
1540

Query EC50 for O=C(O)c1cccc(CN2C(=O)[C@]3(C[C@H]3c3ccccc3C(F)(F)F)c3ccccc32)c1 (racemic)
2360
